Reference source: ChEMBL document CHEMBL4007507

Test system: PC-3
protocol-notes: cells
protocol-conditions: Homo sapiens
IC50 listing for selected compounds.

[
  {
    "query-smiles": "O=C(NC12CCC(C(=O)O)(CC1)CC2)[C@@H]1NC2(CCCCC2)[C@@]2(C(=O)Nc3cc(Cl)ccc32)[C@H]1c1cccc(Cl)c1F",
    "tgt": "PC-3",
    "unit-string": "µM",
    "IC50": 12.3
  },
  {
    "query-smiles": "CCN1[C@@H](C(=O)NC23CCC(C(=O)O)(CC2)CC3)[C@H](c2cccc(Cl)c2F)[C@]2(C(=O)Nc3cc(Cl)ccc32)C12CCCCC2",
    "tgt": "PC-3",
    "unit-string": "µM",
    "IC50": 22
  }
]
